These data points were gathered from PubChem BioAssay (EPA / NIEHS).

Read-out: Pselectin, SELP (gene 6403)
measurement notes: BSK_4H_Pselectin: BioMAP Diversity Plus: 4H Assay for Pselectin Biomarker Activity (AID 2283026)
applied conditions: primary human endothelial cells (HUVEC); actives raise or lower the signal
Active and inactive are the calls of the source. Rule for the calls: active = hit-call score of the fitted dose curve at least 0.9, where 1 is the maximum; inactive = score below 0.9.
Classes used: y = active, n = inactive

{"compound": "COc1ccc(C(=O)c2ccccc2)c(O)c1", "category": "n"}
{"compound": "CC1=CC=C(C(C)C)CC1", "category": "n"}
{"compound": "Fc1ccc(Br)cc1", "category": "n"}
{"compound": "Oc1ccc(/C=C/c2cc(O)cc(O)c2)cc1", "category": "n"}
{"compound": "c1ccc2c(c1)[nH]c1ccccc12", "category": "n"}
{"compound": "Nc1nc(N)nc(-c2ccccc2)n1", "category": "n"}
{"compound": "CC=C(C)C=CC=C(C)C", "category": "n"}
{"compound": "CCc1cccc(C)c1N(C(=O)CS(=O)(=O)O)C(C)COC (stereo not given)", "category": "n"}
{"compound": "CCCCCCCCCCCC(C)=O", "category": "y"}
{"compound": "CC(C)CCCCCOC(=O)CS", "category": "n"}
{"compound": "O=C1CCCCCCCCCCC1", "category": "n"}
{"compound": "CCOC(=O)C1=NOC(c2ccccc2)(c2ccccc2)C1", "category": "n"}
{"compound": "Nc1cccc(N)n1", "category": "n"}
{"compound": "CC(C)c1cccc(C(C)C)c1N", "category": "n"}
{"compound": "C=CC(=O)OCCCCCCCC(C)C", "category": "n"}

----------
Read-out: Interferon-gamma inducible Protein 10 (IP10), CXCL10 (gene 3627)
measurement notes: BSK_KF3CT_IP10: BioMAP Diversity Plus: KF3CT Assay for Interferon-gamma inducible Protein 10 (IP10) Biomarker Activity (AID 2283068)
applied conditions: primary human keratinocytes with fibroblasts; actives raise or lower the signal
Calls of active or inactive are those of the source. Rule for the calls: active = hit-call score of the fitted dose curve at least 0.9, where 1 is the maximum; inactive = score below 0.9.
Classes used: t (active), f (inactive)

{"compound": "CCCCCCCCCCCC(C)=O", "category": "f"}
{"compound": "C=CC(=O)NC(C)(C)C", "category": "f"}
{"compound": "COc1ccc(C(=O)c2ccccc2)c(O)c1", "category": "f"}
{"compound": "Nc1nc(N)nc(-c2ccccc2)n1", "category": "f"}
{"compound": "CCCCCCC=O", "category": "f"}
{"compound": "CC(c1cc(C(C)(C)C)cc(C(C)(C)C)c1O)c1cc(C(C)(C)C)cc(C(C)(C)C)c1O", "category": "f"}
{"compound": "C1CNCCN1", "category": "f"}
{"compound": "C=CC(=O)NCOCCCC", "category": "f"}
{"compound": "C=CC(=O)OCCCCCCCC(C)C", "category": "f"}
{"compound": "CC=C(C)C=CC=C(C)C", "category": "f"}
{"compound": "Fc1ccc(Br)cc1", "category": "f"}
{"compound": "C=CC(=O)OCC(C)OCC(C)OCC(C)OC(=O)C=C (stereo not given)", "category": "t"}
{"compound": "O=C1CCCCCCCCCCC1", "category": "f"}
{"compound": "CC1(C)CC(O)CC(C)(C)N1[O]", "category": "f"}
{"compound": "Oc1c(Cl)cc(Cl)c(Cl)c1Cl", "category": "t"}
